All figures here come from patent US12552753B2.

Please respond with reported IC50 for every item in the list.
Biological target: UniProt P51685
Assay: Tango assay (Tango-CCR8-Gal4-CHO-K1 cells, CCL1-stimulated, ONE-Glo luminescence)
Conditions: Tango Assay IC50, Inhibition of CCR8 Tango cell in vitro
Structures can show the parent of a compound that is named as a salt.
Report the value in nM with no unit label.

Looking up Cc1ccccc1C(=O)Nc1ccc(S(=O)(=O)NC(C)c2ccccc2N)c2ccccc12 (stereo not drawn) , I see its IC50 listed as 832

Looking up C[C@H](N)C(=O)N1CCC(NS(=O)(=O)c2ccc(-c3nc4ccccc4[nH]3)cc2)CC1 , I see its IC50 listed as 258

Looking up Cc1ccccc1C(=O)Nc1c(C)cc(S(=O)(=O)N[C@H](C)C2CCNCC2)cc1Cl [Compound 180A, hydrochloride] , I see its IC50 listed as 2

Looking up Cc1ccccc1C(=O)Nc1ccc(S(=O)(=O)N[C@H](C)C2CCNCC2)cc1Br [Compound 192A, hydrochloride] , I see its IC50 listed as 26

Looking up Cc1cc(S(=O)(=O)N[C@H](C)C2CCN(CC(F)(F)F)CC2)ccc1NC(=O)c1ccccc1C , I see its IC50 listed as 61

###

Target: UniProtKB P51685
Test: Tango assay (Tango-CCR8-Gal4-CHO-K1 cells, CCL1-stimulated, ONE-Glo luminescence)
Details: Tango Assay IC50, Inhibition of CCR8 Tango cell in vitro
Where a name gives a salt, the structure may show the parent alone.
MEASURED PROPERTY: pIC50
Quick note: pIC50 means taking -log10 of the concentration in moles per liter.

Looking up Cc1ccccc1C(=O)Nc1c(Cl)cc(S(=O)(=O)N[C@H](C)C2CCNCC2)cc1Cl [Compound 305, hydrochloride] , I see its pIC50 listed as 8.82

Looking up CC(NS(=O)(=O)c1ccc(-c2[nH]nnc2-c2ccccc2)c2ccccc12)C1CCCCC1 (stereo not shown) [Compound 148] , I see its pIC50 listed as 6.21

Looking up Cc1ccccc1C(=O)Nc1ccc(S(=O)(=O)N[C@H](C)C2CCN(C)CC2)cc1C#N [Compound 221] , I see its pIC50 listed as 7.62

Looking up Cc1ccccc1C(=O)Nc1ccc(S(=O)(=O)N[C@H](C)C2CCN(C)CC2)c(Cl)c1Cl [Compound 275] , I see its pIC50 listed as 7.34

###

Please respond with reported log10 of IC50 for every item in the list.
Target: CCR8 (Homo sapiens)
Sequence (P51685 whole entry, the tested form may be a part): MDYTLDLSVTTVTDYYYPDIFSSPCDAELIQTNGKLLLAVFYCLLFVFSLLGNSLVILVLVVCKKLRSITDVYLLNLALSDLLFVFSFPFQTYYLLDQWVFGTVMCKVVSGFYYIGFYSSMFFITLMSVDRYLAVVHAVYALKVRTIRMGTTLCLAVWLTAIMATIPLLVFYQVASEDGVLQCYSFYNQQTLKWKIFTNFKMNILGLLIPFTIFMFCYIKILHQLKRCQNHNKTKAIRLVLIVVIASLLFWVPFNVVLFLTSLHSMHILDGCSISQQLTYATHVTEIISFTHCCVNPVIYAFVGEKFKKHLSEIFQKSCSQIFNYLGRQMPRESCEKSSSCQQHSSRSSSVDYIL
Test: Tango assay (Tango-CCR8-Gal4-CHO-K1 cells, CCL1-stimulated, ONE-Glo luminescence)
Conditions: Tango Assay IC50, Inhibition of CCR8 Tango cell in vitro
Structures can show the parent of a compound that is named as a salt.
Note: values are log10 of IC50 expressed in nM.

Looking up CCCC(=O)N1CCC(NS(=O)(=O)c2ccc(-c3nc4ccccc4[nH]3)c3ccccc23)CC1 , I see its log10 of IC50 listed as 2.96

Looking up COC(=O)CN1CCC([C@@H](C)NS(=O)(=O)c2ccc(NC(=O)c3ccccc3C)c(C)c2)CC1 , I see its log10 of IC50 listed as 2.02

Looking up Cc1ccccc1C(=O)Nc1ccc(S(=O)(=O)NC(C)C23CCN(CC2)CC3)c2ccccc12 (stereo not shown) , I see its log10 of IC50 listed as 2.48

Looking up Cc1ccccc1C(=O)Nc1cc(F)c(S(=O)(=O)N[C@H](C)C2CCN(C)CC2)cc1Cl , I see its log10 of IC50 listed as 0.30

Looking up Cc1cc(S(=O)(=O)N[C@H](C)C2CCN(C(C)C)CC2)ccc1NC(=O)c1ccccc1C , I see its log10 of IC50 listed as 1.18

Looking up CC(=O)N1CCCC(C(C)NS(=O)(=O)c2ccc(NC(=O)c3ccccc3C)c3ccccc23)C1 (single isomer, unassigned) [Compound 18A] , I see its log10 of IC50 listed as 1.32

Looking up Cc1ccccc1C(=O)Nc1cc(C)c(S(=O)(=O)N[C@H](C)C2CCNCC2)cc1F [Compound 257, hydrochloride] , I see its log10 of IC50 listed as 1.18

Looking up CC(=O)N1CCOC(C(C)NS(=O)(=O)c2ccc(NC(=O)c3ccccc3C)c3ccccc23)C1 (stereo not shown) , I see its log10 of IC50 listed as 3.36
